- Experiment Description: protein stability index of a GFP-peptide fusion (yeast GPS) (PSI 1-4); higher = more stable; sorted into four equal gates, so the index is relative within each strain
- Test Settings: pdr5∆
Reported Property: protein stability index
Respond numerically, and do not add a unit to the figure.

NENPYNNGVSNLWKNIF [COR1]	1.96

Name the reported protein stability index value associated with the sequence WNRADNHFKDTYGFSIL [FAS1]
2.57

Name the reported protein stability index value associated with the sequence QELLNAETLCFTVNVLY [RPN3]
2.75

Name the reported protein stability index value associated with the sequence RLQQQQAQAQAQANNNN [GAL11]
2.55

====

Listed sequences paired with reported protein stability index
- Experiment Description: protein stability index of a GFP-peptide fusion (yeast GPS) (PSI 1-4); higher = more stable; sorted into four equal gates, so the index is relative within each strain
- Test Settings: doa10∆
Respond numerically, and do not add a unit to the figure.

Sample records with protein stability index:
IREINYTMSNHGMSVDP [RPO31]	2.87
MKLNISYPVNGSQKTFE [RPS6A]	2.65
KKIFGTGKRLAKKVARR [RPS24A]	3.52

Name the reported protein stability index value associated with the sequence VIVPLSTLSNWSSEFAK [SNF2]
2.65

Name the reported protein stability index value associated with the sequence ASLHSKELTRIPGEEVE [MED4]
2.97

Name the reported protein stability index value associated with the sequence AIMSKSSLEELLLKDQQ [ECM29]
2.83

Name the reported protein stability index value associated with the sequence DLFGDSNKSNSTNESNK [SSN2]
3.2

Name the reported protein stability index value associated with the sequence QKSSKENIENEEYVINL [ECM29]
3.02

====

Listed sequences paired with reported protein stability index
- Experiment Description: protein stability index of a GFP-peptide fusion (yeast GPS) (PSI 1-4); higher = more stable; sorted into four equal gates, so the index is relative within each strain
- Test Settings: ubr1∆
Respond numerically, and do not add a unit to the figure.

Sample records with protein stability index:
GIIVAVDSRATAGNWVA [PRE2]	1.54
RDYLVDTLKLRENLHIL [RRP6]	3.29
KAGKVAVVVRGRYAGKK [RPL27A]	1.78
LQGQMEKIMILLVPLAL [CSN12]	1.52
LDKNLIKLVKQNDELKF [RPC34]	2.18

Name the reported protein stability index value associated with the sequence FKSYATRTVITDWDPQF [SMC2]
2.85

Name the reported protein stability index value associated with the sequence LNIGKNFAHSDSLSVPK [SIR4]
3.2

====

- Experiment Description: protein stability index of a GFP-peptide fusion (yeast GPS) (PSI 1-4); higher = more stable; sorted into four equal gates, so the index is relative within each strain
- Test Settings: pdr5∆
Reported Property: protein stability index
Respond numerically, and do not add a unit to the figure.

Sample records with protein stability index:
DELDAIGTKRFDSEKSG [RPT5]	1.66
TARVMGGLKNGVLYQGN [DIS3]	3.3
KFSSRHGQKGVCGIIVK [RET1]	3.51
TPAPKISYKKGAASNRT [RPL36A]	3.22
TDQSTEEEKSVDASPND [CSL4]	2.8
DKARRLGYKAKQGFVIY [RPL15A]	3.33

Name the reported protein stability index value associated with the sequence GTSQNYGTATADDADIE [MED1]
3.29

Name the reported protein stability index value associated with the sequence LSALNSEISSLKGKINN [SMC1]
3

Name the reported protein stability index value associated with the sequence EIKKVTQIVAKFPETSY [SIN4]
3.02

Name the reported protein stability index value associated with the sequence DKLINDVTAIQTWSYLS [ECM29]
1.78

Name the reported protein stability index value associated with the sequence IDEIAYLFHNDRIIHTW [ECM29]
1.43

Name the reported protein stability index value associated with the sequence LMATEYQDIEGGFEDVE [RPB2]
3.31

Name the reported protein stability index value associated with the sequence NWRSFNAKIIDAEVAQF [SRP68]
2.56

Name the reported protein stability index value associated with the sequence FNLNLPPSSFGRSHTRN [REC8]
2.51

====

- Experiment Description: protein stability index of a GFP-peptide fusion (yeast GPS) (PSI 1-4); higher = more stable; sorted into four equal gates, so the index is relative within each strain
- Test Settings: pdr5∆
Listed sequences paired with reported protein stability index
Respond numerically, and do not add a unit to the figure.

Sample records with protein stability index:
KYPMYMQLEEELMKLDG [MED6]	1.44
DAFNMLSLTTVPCDRIE [SNF6]	2.57
KYKQLLLKDDTYQLCVR [RPN3]	1.78
DEDEDEDEDDDDDDDED [QCR6]	1.96
STVKKKDIVNISIPKTC [REC8]	2.41

Name the reported protein stability index value associated with the sequence FTLLDFKKQMQTIMKMG [SRP54]
2.67

Name the reported protein stability index value associated with the sequence HTPMVNFESISARSSVH [SRB8]
1.97

Name the reported protein stability index value associated with the sequence KNVETLEEKILAKKTHK [SMC4]
2.94

Name the reported protein stability index value associated with the sequence FQSVQLNINNPNFLIMQ [SMC2]
2.62

Name the reported protein stability index value associated with the sequence NIRNNIESQNLDLIPHS [SRB4]
2.92

Name the reported protein stability index value associated with the sequence SAAASESDVAKQLASFG [RPL16B]
2.83

Name the reported protein stability index value associated with the sequence ASIGQAAEQQSKAFKES [SRP54]
3.33

Name the reported protein stability index value associated with the sequence ETPNQDATYDSALELVG [RPN6]
2.86

Name the reported protein stability index value associated with the sequence AFYQKGNKLVELMRIIS [SMC1]
1.15

Name the reported protein stability index value associated with the sequence VNAMRVLYYRDARSSRN [PRE4]
3.16

====

- Experiment Description: protein stability index of a GFP-peptide fusion (yeast GPS) (PSI 1-4); higher = more stable; sorted into four equal gates, so the index is relative within each strain
- Test Settings: pdr5∆
Listed sequences paired with reported protein stability index
Respond numerically, and do not add a unit to the figure.

FLLSAMTMASKSLEVVN [NSL1]	1.45
NKFMSIFLKRKDFTNKN [SRB8]	2.2

Name the reported protein stability index value associated with the sequence LTSFAEENNYQYGYSGS [SNF6]
2.22

Name the reported protein stability index value associated with the sequence VDSRATAGNWVASQTVK [PRE2]
3.4

Name the reported protein stability index value associated with the sequence FFEMLISKSLTFSQESG [RRI2]
1.45

====

- Experiment Description: protein stability index of a GFP-peptide fusion (yeast GPS) (PSI 1-4); higher = more stable; sorted into four equal gates, so the index is relative within each strain
- Test Settings: san1∆
Respond with 1 for protein stability index values of 3 and above, -1 for values below.

DSIYTKPVKVALIFIFF [YJL039C/NUP192]	-1
EAGASAELDDCRGVSEN [RPO21]	1
QTQAIAQQQQLSNYPQQ [YGR119C/NUP57]	-1

Is reported protein stability index greater than or equal to 3 here: LSEEETLLVIRRLHKVL [SNF2]
-1

Is reported protein stability index greater than or equal to 3 here: NENDLKTYNCLHEKYLT [SMC1]
-1

Is reported protein stability index greater than or equal to 3 here: ASEYIETLGLKYLGLKP [FAS1]
1

Is reported protein stability index greater than or equal to 3 here: MASLPHPKIVKKHTKKF [RPL32]
-1

Is reported protein stability index greater than or equal to 3 here: MRFNIEIIADWIWDMNV [BRR2]
-1

Is reported protein stability index greater than or equal to 3 here: KLQLSFVLQMVGKTAQS [SRP72]
-1

Is reported protein stability index greater than or equal to 3 here: EEKKKEHEEKEKERETN [RPN2]
1

Is reported protein stability index greater than or equal to 3 here: ALYRVNDLRDMILNYNP [UBP6]
-1

Is reported protein stability index greater than or equal to 3 here: RFDAQTGSDREVQRILI [RPT3]
1

Is reported protein stability index greater than or equal to 3 here: IREIDVTGGKKALVLFV [RPS7B]
-1

Is reported protein stability index greater than or equal to 3 here: QKLDILVAKLKKVKSAS [SMC4]
-1

Is reported protein stability index greater than or equal to 3 here: LQFHVATYMDNDIAGQP [RPO21]
-1

Is reported protein stability index greater than or equal to 3 here: MKAVRKVAEVKKLEGTI [RPT4]
1

Is reported protein stability index greater than or equal to 3 here: MNDVINTEEVNRLEKEQ [LIN1]
1

Is reported protein stability index greater than or equal to 3 here: LMEFLCVVSTDSTNLSD [ECM29]
-1

Is reported protein stability index greater than or equal to 3 here: LHVLVAHKLKKSLDSIP [FAS2]
-1

Is reported protein stability index greater than or equal to 3 here: GIIVAVDSRATAGNWVA [PRE2]
-1

Is reported protein stability index greater than or equal to 3 here: EVRILPRQRMEEVVSND [PRP8]
-1

Is reported protein stability index greater than or equal to 3 here: DPNLELDQVGVPKSIAK [RPO21]
-1

Is reported protein stability index greater than or equal to 3 here: NVTQNEQQWITRAQYLA [SRP68]
-1

Is reported protein stability index greater than or equal to 3 here: KQEIREAVELPLVQADL [RPT3]
1

Is reported protein stability index greater than or equal to 3 here: VTRTQQWSMVAQRLQIS [SWI1]
-1

Is reported protein stability index greater than or equal to 3 here: MVALISKKRKLVADGVF [RPS3]
-1
